test system: Mycobacterium tuberculosis; assay: Antimycobacterial activity against Mycobacterium tuberculosis H37Ra by microplate alamar blue assay; assay type: functional
observable: MIC

Consider the worked cases shown below.
• C/C=C/CC[C@@H]1Cc2cc(O)c(CCCC)c(O)c2C(=O)O1 = 25 µg/mL
• NC[C@H]1O[C@H](O[C@H]2[C@H](O)[C@@H](O[C@H]3O[C@H](CO)[C@@H](O)[C@H](N)[C@H]3O)[C@H](N)C[C@@H]2N)[C@H](O)[C@@H](O)[C@@H]1O.O=S(=O)(O)O [KANAMYCIN SULFATE] = 2.5 µg/mL
• C/C=C/CC[C@@H]1Cc2cc(O)c(C/C=C/C)c(O)c2C(=O)O1 = 50 µg/mL

-- ask Which MIC is listed for `NNC(=O)c1ccncc1` ?
-- reply 0.05 µg/mL
